Experiment: Topotecan PK following Compound 1 infusion
Format: in vivo, human
Settings: human, plasma, intravenous, topotecan […]^2 (Cohort 1) after Compound 1 200 mg/m^2; Day 1; mean; read-out: Half-lives averaged (converted)
ENDPOINT NAME: half-life (h)
The reply should be a number in h, with the unit left off.

Problem: Fill in the blank: the reported half-life of CC[C@@]1(O)C(=O)OCc2c1cc1n(c2=O)Cc2cc3c(CN(C)C)c(O)ccc3nc2-1.Cl [topotecan] is ____.
Solution: 4.33

---

Test: 14-day oral gavage toxicokinetic study in rats
Assay type: in vivo
Details: both sexes, rat, plasma, po, 30 mg/kg, oral 30 mg/kg, Study Day 1, Overall; read-out: t½ (converted)
ENDPOINT NAME: half-life (h)
Dear colleague, please return just the value in h, with no unit written.

Problem: Any idea what half-life was measured for CN1CCN(c2ccc(Nc3ncc4cc5n(c4n3)C3(CCCCC3)CNC5=O)nc2)CC1 [Compound 1] ?
Solution: 4.98
